experiment: Cyclic voltammetry: formal redox potential, peak current ratio, electrochemical reversibility; type: physicochemical; settings: pH 0

[
  {
    "COMPOUND_SMILES": "O=C(O)c1cc(O)c2c(c1)C(=O)c1cccc(O)c1C2=O",
    "Peak current ratio": "0.39(6)"
  },
  {
    "COMPOUND_SMILES": "O=C1c2ccc(S(=O)(=O)O)cc2C(=O)c2cc(S(=O)(=O)O)ccc21",
    "Peak current ratio": "0.7(1)"
  },
  {
    "COMPOUND_SMILES": "O=S(=O)(O)c1cc(O)c(O)c(S(=O)(=O)O)c1",
    "Peak current ratio": "0.4(1)"
  }
]

----------
Below, each entry is listed alongside its reported Peak current ratio.
assay: Cyclic voltammetry: formal redox potential, peak current ratio, electrochemical reversibility; assay type: physicochemical; settings: pH 0

[
  {
    "MOLECULE": "O=C1c2cccc(S(=O)(=O)[O-])c2C(=O)c2cccc(S(=O)(=O)[O-])c21.[Na+].[Na+]",
    "Peak current ratio": "1.7(1)"
  },
  {
    "MOLECULE": "O=C1C=C(S(=O)(=O)O)c2ccccc2C1=O [NQ(1,2)S, 1,2-naphtoquinone-4-sulfonate sodium]",
    "Peak current ratio": "0.8(1)"
  },
  {
    "MOLECULE": "Oc1c(Cl)c(Cl)c(O)c(Cl)c1Cl [HQ(1,4)TCl, Tetrachloro hydroquinone]",
    "Peak current ratio": "0.72(5)"
  },
  {
    "MOLECULE": "O=C1C(O)=C(Cl)C(=O)C(O)=C1Cl",
    "Peak current ratio": "1.3(1)"
  },
  {
    "MOLECULE": "O=C1C=C(O)C(=O)C=C1O [BQ(1,4)DH, 2,5-dihydroxy-1,4-benzoquinone]",
    "Peak current ratio": "0.87(4)"
  }
]

----------
solubility listing for selected compounds.
test: Aqueous solubility estimation (OECD test #105) in 1 M supporting electrolytes; settings: 1 M KCl supporting electrolyte prepared from MilliQ water, saline or isotonic, thermodynamic from solid, Solubility, 1 M KCl, room temperature
QUANTITY: solubility

[
  {
    "COMPOUND": "O=C1c2ccccc2C(=O)c2c1cc(S(=O)(=O)O)c(O)c2O [AQS(2)DH]",
    "RESULT": "< 10 mM"
  },
  {
    "COMPOUND": "O=C1c2cccc(O)c2C(=O)c2c(O)cc(CO)cc21 [AQDH(1,8)MH]",
    "RESULT": "< 10 mM"
  },
  {
    "COMPOUND": "Cc1cc(O)c2c(c1)C(=O)c1cc(O)cc(O)c1C2=O [AQTrHM]",
    "RESULT": "< 10 mM"
  }
]

----------
experiment: Cyclic voltammetry: formal redox potential, peak current ratio, electrochemical reversibility; assay type: physicochemical; settings: pH 7 (0.5 M phosphate buffer); midpoint of CV peak potentials

[
  {
    "MOLECULE": "Cc1cc(O)c2c(c1)C(=O)c1cc(O)cc(O)c1C2=O",
    "formal redox potential E0'": "-0.386(2) VNHE"
  },
  {
    "MOLECULE": "Oc1c(Cl)c(Cl)c(O)c(Cl)c1Cl [HQ(1,4)TCl, Tetrachloro hydroquinone]",
    "formal redox potential E0'": "0.277(1) VNHE"
  },
  {
    "MOLECULE": "Oc1c(F)c(F)c(O)c(F)c1F [HQ(1,4)TF, 1,2,4,5-tetrafluoro-3,6-dihydroxybenzene]",
    "formal redox potential E0'": "0.23(7) VNHE"
  },
  {
    "MOLECULE": "Oc1ccc(O)cc1 [HQ(1,4), Para hydroquinone]",
    "formal redox potential E0'": "0.433(7) VNHE"
  },
  {
    "MOLECULE": "O=S(=O)([O-])c1cc(O)ccc1O.[K+] [HQ(1,4)S, 2,5-dihydroxybenzenesulfonate potassium]",
    "formal redox potential E0'": "0.471(4) VNHE"
  }
]
